Where these numbers come from: patent US5721266A

# measurement_target: [35S]abl SH-2 / activated EGF receptor (Homo sapiens)
# Construct: containing the SH-2 domain of abl; made in house; host or cells: abl SH-2 fusion: bacteria, labelled in vivo with 35S; EGFR partner: EGF-treated 3T3 cells transfected with human EGFR, immunoprecipitated
# Sequence (P00519 127-217 limits assumed): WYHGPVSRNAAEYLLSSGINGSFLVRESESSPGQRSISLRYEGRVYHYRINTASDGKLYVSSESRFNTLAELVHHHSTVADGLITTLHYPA
# assay_summary: in vitro inhibition of [35S]abl SH-2 interactions with activated EGF receptor
# Type: binding
# run_parameters: [35S]abl SH-2 binding to activated EGF receptor; values in μM; read-out: IC50
IC50 overview
Quick reminder: number only, in µM, skip the unit.

CCCCCCCCCCCCCCCCCNC1=NCCN1C1=NCCN1 [monohydroiodide]    1.32
C(CCCNC1=NCCN1C1=NCCN1)CCCNC1=NCCN1C1=NCCN1 [dihydroiodide]    38
C(CN=C1NCCN1C1=NCCN1)CN1CCN(CCCN=C2NCCN2C2=NCCN2)CC1    10
CCCCCCCCCCCCCN=C1NCCN1C1=NCCN1    50
C(CCNC1=NCCN1C1=NCCN1)CCNC1=NCCN1C1=NCCN1 [dihydroiodide]    259

Returns the measured IC50 for the input compound. Input: C(CCCCNC1=NCCN1C1=NCCN1)CCCNC1=NCCN1C1=NCCN1 [dihydroiodide] 33

Give the measured IC50 of C(CCNC1=NCCN1C1=NCCN1)CNC1=NCCN1C1=NCCN1 [dihydroiodide] . 27
